Target: Leukotriene B4 receptor (Homo sapiens, UniProt Q9NPC1+Q15722)
Experiment: Inhibition of LTB4-induced up-regulation of human neutrophil CD11b/CD18 integrin
Type: functional
test.readout: IC50 (nM)

CCc1cc(-c2ccccc2)c(O)cc1OCCCOc1ccc2c(=O)c3cc(C(=O)O)ccc3oc2c1CCC(=O)O 3.4

P. CCc1cc(-c2ccc(F)cc2)c(O)cc1OCCCOc1ccc2c(=O)c3ccccc3oc2c1CCC(=O)O
Q. CCc1cc(-c2ccc(F)cc2)c(O)cc1OCCCOc1ccc2c(=O)c3cc(C(=O)O)ccc3oc2c1CCC(=O)O
Compare the recorded IC50 of P and Q ; state which is larger. Your answer should be the label attached to the chosen record.
P
(P: 1.8 nM, Q: 1.2 nM)

* * *

Target: Leukotriene B4 receptor 1 (Homo sapiens)
Sequence (Q15722 whole entry): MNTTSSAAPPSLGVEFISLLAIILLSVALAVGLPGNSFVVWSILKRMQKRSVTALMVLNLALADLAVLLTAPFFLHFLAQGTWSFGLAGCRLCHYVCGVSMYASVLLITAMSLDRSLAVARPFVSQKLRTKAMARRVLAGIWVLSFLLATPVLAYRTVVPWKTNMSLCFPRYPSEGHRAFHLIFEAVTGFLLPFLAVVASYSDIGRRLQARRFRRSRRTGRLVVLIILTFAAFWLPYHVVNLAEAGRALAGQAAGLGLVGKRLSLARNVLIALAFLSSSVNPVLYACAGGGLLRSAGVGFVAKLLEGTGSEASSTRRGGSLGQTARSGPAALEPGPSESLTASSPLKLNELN
Assay: Tested for inhibition of specific binding of [3H]LTB4 to human neutrophil expressing LTB4 receptor
test.readout: Ki (nM)

CCc1cc(-c2ccccc2)c(O)cc1OCCCOc1ccc2c(=O)c3cc(C(=O)O)ccc3oc2c1CCC(=O)O 0.57

1. CCc1cc(-c2ccc(F)cc2)c(O)cc1OCCCOc1ccc2c(=O)c3cc(C(=O)O)ccc3oc2c1CCC(=O)O
2. CCc1cc(-c2ccc(F)cc2)c(O)cc1OCCCOc1ccc2c(=O)c3ccccc3oc2c1CCC(=O)O
3. CCc1cc(-c2ccccc2)c(O)cc1OCCCOc1ccc2c(=O)c3ccccc3oc2c1CCC(=O)O
Sort the 3 compounds by Ki; largest first, smallest last. Write out the labels following the order that was asked for.
2, 3, 1
(2: 36 nM, 3: 22 nM, 1: 0.47 nM)
